Biological target: T1, GST-GRIP 1 PDZ domain 6 (Mus musculus (Mouse)), Q925T6
T1 chain: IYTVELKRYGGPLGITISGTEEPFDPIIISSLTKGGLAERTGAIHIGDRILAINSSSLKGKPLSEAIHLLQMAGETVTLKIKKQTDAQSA
Test: G assay titration, PDZ 5 ug/ml
pKd: −log10 of the molar value.
Endpoint: pKd

binder="HHLVAQRDIRQFQLQHWLAI (modifications not checked) [noradrenaline transporter]" endpoint=pKd data_value=6.30
